Consider the following compounds; for each one, report its Plant response rating, Kochia.
# Test system: kochia (Kochia scoparia)
# test details: Test A postemergence, kochia
# Format: in vivo
# measurement parameters: 500 g ai/ha, 0 to 100 scale, 0 no effect, 100 complete control

Q) Item: CC(Nc1ncc(C(F)(F)F)c(N)n1)c1cc2c(Cl)cccc2o1 (stereo not drawn) [Compound 100] Test system: kochia (Kochia scoparia) Read-out: Plant response rating, Kochia Value: ?
A) 100

Q) Now the same for Nc1nc(NC(c2cc3ccccc3o2)C2CC2)ncc1C(F)(F)F (stereo not drawn) [Compound 89]
A) 0

Q) Now the same for C[C@@H](Nc1ncc(C(F)(F)F)c(N)n1)c1coc2cc(Cl)ccc12 [Compound 55]
A) 90

Q) Now the same for CC[C@H](Nc1ncc(C(F)(F)F)c(N)n1)c1coc2ccccc12 [Compound 81]
A) 40

Q) Now the same for Nc1nc(N[C@@H](c2coc3ccccc23)C2CC2)ncc1C(F)(F)F [Compound 79]
A) 90

Q) Now the same for C[C@@H](Nc1nc(N)c(C(F)(F)F)c(C(F)(F)F)n1)c1cc2ccccc2o1 [Compound 65]
A) 60

Q) Now the same for C[C@@H](Nc1ncc(C#N)c(N)n1)c1cc2ccccc2s1 [Compound 104]
A) 60

Q) Now the same for Cc1ccc2c([C@@H](Nc3ncc(C(F)(F)F)c(N)n3)C3CC3)coc2c1 [Compound 91]
A) 0

Q) Now the same for C[C@@H](Nc1nc(N)c(C(F)(F)F)c(C(F)(F)F)n1)C1Cc2ccccc2C1 [Compound 67]
A) 70

Q) Now the same for C[C@H](Nc1ncc(C(F)(F)F)c(N)n1)c1coc2ccc(F)cc12 [Compound 56]
A) 40

Q) Now the same for CC(Nc1ncc(C(F)(F)F)c(N)n1)c1cc2c(Br)cccc2o1 (stereo not drawn) [Compound 102]
A) 90

Q) Now the same for CC(=O)c1cnc(NC(C)c2cc3ccccc3s2)nc1N (stereo not drawn) [Compound 57]
A) 60

Q) Now the same for CC(Nc1ncc(C(F)(F)F)c(N)n1)c1cc2ccc(Cl)cc2s1 (racemic) [Compound 70]
A) 80

Q) Now the same for Cc1cccc2oc(C(C)Nc3ncc(C(F)(F)F)c(N)n3)cc12 (stereo not drawn) [Compound 101]
A) 100

Q) Now the same for CC(Nc1ncc(C(F)(F)F)c(N)n1)c1cc2ccc(F)c(F)c2s1 (stereo not drawn) [Compound 86]
A) 90

Q) Now the same for C[C@H](Nc1ncc(C(F)(F)F)c(N)n1)c1cc2cccc(F)c2o1 [Compound 72]
A) 30

Q) Now the same for C[C@H](Nc1ncc(C(F)(F)F)c(N)n1)c1cc2ccccc2n1C [Compound 76]
A) 0

Q) Now the same for C[C@H](Nc1nc(N)c(C(F)(F)F)c(C(F)(F)F)n1)c1cc2ccccc2s1 [Compound 60]
A) 100
